tested_target: UniProtKB P17252
pKi: −log10 of the molar value.
Each item that follows carries a reported pKi.

molecule	pKi
Fc1ccc(CNc2ncc3nc(-c4c(Cl)cccc4Cl)n(CC4CCNC4)c3n2)c(F)c1 (stereo not shown)	< 6.00

*Q* Requested field: pKi. Item: `Fc1cccc(Cl)c1-c1nc2cnc(NCc3cc(Cl)cc(Cl)c3)nc2n1C[C@@H]1CCCNC1`
*A* < 5.00

*Q* Subsequent entry: `Fc1cccc(CNc2ncc3nc(-c4c(F)cccc4Cl)n(C[C@@H]4CCCNC4)c3n2)c1`
*A* < 6.00

*Q* For Fc1ccccc1CNc1ncc2nc(-c3c(Cl)cccc3Cl)n(CC3CCCNC3)c2n1 (stereo not shown) then?
*A* < 6.00

---

tested_target: PKC delta (Homo sapiens, UniProt Q05655)
Sequence (Q05655 whole entry): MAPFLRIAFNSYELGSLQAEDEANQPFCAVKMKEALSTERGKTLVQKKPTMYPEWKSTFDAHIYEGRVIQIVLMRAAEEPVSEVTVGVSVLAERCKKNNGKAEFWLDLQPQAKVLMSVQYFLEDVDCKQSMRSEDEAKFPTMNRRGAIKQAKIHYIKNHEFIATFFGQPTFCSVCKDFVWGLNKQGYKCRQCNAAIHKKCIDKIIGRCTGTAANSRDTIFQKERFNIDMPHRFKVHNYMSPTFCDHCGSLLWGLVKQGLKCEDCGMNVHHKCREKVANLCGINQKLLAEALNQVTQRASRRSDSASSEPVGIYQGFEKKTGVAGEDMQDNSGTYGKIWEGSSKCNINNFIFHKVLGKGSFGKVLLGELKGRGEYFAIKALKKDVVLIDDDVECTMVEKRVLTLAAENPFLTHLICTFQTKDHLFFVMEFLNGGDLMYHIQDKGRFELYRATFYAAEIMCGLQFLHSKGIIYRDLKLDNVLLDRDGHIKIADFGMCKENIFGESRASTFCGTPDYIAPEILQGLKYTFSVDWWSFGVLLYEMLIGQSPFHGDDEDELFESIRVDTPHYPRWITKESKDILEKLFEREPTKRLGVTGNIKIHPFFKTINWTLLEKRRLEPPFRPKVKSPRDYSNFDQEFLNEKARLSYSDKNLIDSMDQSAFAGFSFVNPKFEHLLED
test_name: Ki Pan Vera (PV) potency for PKC delta
details: Ki Pan Vera (PV) of PKC delta
pKi: −log10 of the molar value.
measurement_type: pKi

// worked examples, pKi included
compound	measurement_type	result
Fc1ccc(CNc2ncc3nc(-c4c(F)cccc4Cl)n(C[C@@H]4CCCNC4)c3n2)cc1F	pKi	< 6.60
Fc1cccc(Cl)c1-c1nc2cnc(NCc3ccccc3)nc2n1C[C@@H]1CCCNC1	pKi	< 6.00
Fc1ccc(CNc2ncc3nc(-c4ccccc4Cl)n(C[C@@H]4CCCNC4)c3n2)c(F)c1	pKi	< 6.00

*Q* Look up pKi: Clc1cccc(Cl)c1-c1nc2cnc(NCc3ccccn3)nc2n1CC1CCNC1 (centres unmarked)
*A* < 6.00

*Q* And `Clc1cccc(Cl)c1-c1nc2cnc(NCc3cccs3)nc2n1CCC1CCNCC1` ?
*A* < 6.00

---

pKi: −log10 of the molar value.
Lab note: pKi readings collected with UniProtKB Q04759 for the following compounds.
Sequence (Q04759 whole entry): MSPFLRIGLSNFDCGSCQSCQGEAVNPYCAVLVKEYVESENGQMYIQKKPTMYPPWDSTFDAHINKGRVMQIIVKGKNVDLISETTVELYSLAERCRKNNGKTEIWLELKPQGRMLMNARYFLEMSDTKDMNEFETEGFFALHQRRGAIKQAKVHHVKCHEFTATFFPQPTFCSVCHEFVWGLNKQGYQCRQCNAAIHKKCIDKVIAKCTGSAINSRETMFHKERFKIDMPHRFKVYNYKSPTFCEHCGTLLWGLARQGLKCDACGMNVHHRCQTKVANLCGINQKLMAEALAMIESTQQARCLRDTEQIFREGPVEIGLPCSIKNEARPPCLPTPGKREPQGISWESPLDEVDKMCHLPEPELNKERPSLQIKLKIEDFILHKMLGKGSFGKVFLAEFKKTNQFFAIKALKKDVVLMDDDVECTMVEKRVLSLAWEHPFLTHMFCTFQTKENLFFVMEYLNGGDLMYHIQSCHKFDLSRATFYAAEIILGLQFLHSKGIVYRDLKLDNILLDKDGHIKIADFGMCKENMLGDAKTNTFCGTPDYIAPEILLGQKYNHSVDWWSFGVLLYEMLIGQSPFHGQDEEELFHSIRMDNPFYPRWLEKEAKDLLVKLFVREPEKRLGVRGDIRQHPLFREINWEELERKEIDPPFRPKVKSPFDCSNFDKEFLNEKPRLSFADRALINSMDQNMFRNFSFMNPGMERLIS

The cases that follow already have their pKi on record.
compound	tested_target	pKi
Clc1cccc(Cl)c1-c1nc2cnc(NCc3cccs3)nc2n1C[C@H]1CCNC1 [Compound 170]	UniProtKB Q04759	> 6.00
Fc1ccccc1CNc1ncc2nc(-c3c(Cl)cccc3Cl)n(C[C@@H]3CCCNC3)c2n1 [Compound 110]	UniProtKB Q04759	> 7.00
Fc1ccc(Cl)cc1CNc1ncc2nc(-c3c(F)cccc3Cl)n(C[C@@H]3CCCNC3)c2n1 [Compound 115]	UniProtKB Q04759	> 6.00
Fc1ccccc1CNc1ncc2nc(-c3c(Cl)cccc3Cl)n(CC3CCNC3)c2n1 (stereo not shown) [Compound 150]	UniProtKB Q04759	> 6.00
Fc1ccc(CNc2ncc3nc(-c4c(F)cccc4Cl)n(C[C@@H]4CCCNC4)c3n2)cc1Cl [Compound 108]	UniProtKB Q04759	> 6.00

*Q* Given the entry Fc1ccccc1CNc1ncc2nc(-c3c(F)cccc3Cl)n(C[C@H]3CCNC3)c2n1 [Compound 211] , report its measured pKi.
*A* > 6.00

*Q* Same for C[C@H](Nc1ncc2nc(-c3ccccc3Cl)n(C[C@@H]3CCCNC3)c2n1)c1ccccc1F [Compound 217]
*A* > 6.00

*Q* Moving on to the next compound: Clc1ccc(CNc2cc3c(cn2)nc(-c2c(Cl)cccc2Cl)n3CCC2CCNCC2)cc1Cl [Compound 154]
*A* > 5.00

*Q* Please do the same for Fc1ccc(CNc2ncc3c(n2)C(C[C@H]2CCNC2)C(c2c(Cl)cccc2Cl)=N3)cc1 (stereo partly shown) [Compound 130] as well.
*A* > 6.00

*Q* Next: Fc1ccc(CNc2ncc3nc(-c4c(F)cccc4Cl)n(C[C@@H]4CCCNC4)c3n2)c(F)c1 [Compound 144]
*A* > 6.00

*Q* Input Fc1ccccc1CNc1ncc2nc(-c3c(F)cccc3Cl)n(CC3CCCNC3)c2n1 (stereo not shown) [Compound 160]
*A* > 6.00

*Q* Likewise for Fc1ccc(F)c(CNc2ncc3nc(-c4c(Cl)cccc4Cl)n(C[C@@H]4CCCNC4)c3n2)c1 [Compound 104] ?
*A* > 7.00

*Q* Please answer likewise for Clc1cccc(Cl)c1-c1nc2cnc(NCc3ccco3)nc2n1CCC1CCNCC1 [Compound 214]
*A* > 5.00

*Q* Also Fc1ccc(F)c(CNc2ncc3nc(-c4c(F)cccc4Cl)n(C[C@@H]4CCCNC4)c3n2)c1 [Compound 124] , if possible.
*A* > 6.00

*Q* Next: C[C@H](Nc1ncc2nc(-c3c(Cl)cccc3Cl)n(C[C@@H]3CCCNC3)c2n1)c1ccccc1F [Compound 116]
*A* > 6.00

*Q* And Fc1ccc(F)c(CNc2ncc3nc(-c4c(F)cccc4Cl)n(C[C@H]4CCNC4)c3n2)c1 [Compound 209] ?
*A* > 6.00

*Q* What about Fc1ccc(F)c(CNc2ncc3nc(-c4c(Cl)cccc4Cl)n(C[C@H]4CCNC4)c3n2)c1 [Compound 125] ?
*A* > 6.00

*Q* Try the compound Fc1ccc(F)c(CNc2ncc3nc(-c4c(Cl)cccc4Cl)n(CC4CCNC4)c3n2)c1 (stereo not shown) [Compound 161]
*A* > 7.00

*Q* Also Fc1ccccc1CNc1ncc2nc(-c3ccccc3Cl)n(CCC3CCNCC3)c2n1 [Compound 240] ?
*A* > 6.00

*Q* Another: Fc1ccc(CNc2ncc3nc(-c4ccccc4Cl)n(C[C@@H]4CCCNC4)c3n2)c(F)c1 [Compound 210]
*A* > 5.00

*Q* Then what about the compound Fc1ccc(CNc2ncc3nc(-c4c(F)cccc4Cl)n(CC4CCNC4)c3n2)cc1F (stereo not shown) [Compound 223] ?
*A* > 6.00

*Q* Try this compound too: Fc1ccc(CNc2ncc3nc(-c4c(Cl)cccc4Cl)n(CC4CCNC4)c3n2)c(F)c1 (stereo not shown) [Compound 172]
*A* > 6.00

*Q* Would you kindly repeat that for Fc1ccc(Cl)cc1CNc1ncc2nc(-c3c(Cl)cccc3Cl)n(C[C@@H]3CCCNC3)c2n1 [Compound 102] ?
*A* > 7.00

*Q* Repeat with Fc1cccc(CNc2ncc3nc(-c4c(Cl)cccc4Cl)n(CCC4CCNCC4)c3n2)c1 [Compound 126]
*A* > 6.00

*Q* Try this compound next: Fc1ccc(CNc2ncc3nc(-c4c(Cl)cccc4Cl)n(CC4CCNC4)c3n2)cc1F (stereo not shown) [Compound 142]
*A* > 6.00
